- method-summary: Compound stability in human liver microsomes
- Type: in vitro ADME
- assay-conditions: human liver microsomes 0.5 mg protein/mL, compound 5 μM, NADPH 1.0 mM, pH 7.4, 37° C.; read-out: Human T1/2
Parameter half-life at 5 μM: see the listing below.
API: value field is a number in min; no unit string.

Request the reported half-life at 5 μM associated with CC(C)(O)c1nc2cc(Nc3ncc(Cl)c(NC4CCN(c5ccc(C#N)cn5)CC4)n3)ccn2n1 [Example 39]
121

Ok, now CC(C)(O)c1cn2ccc(Nc3ncc(Cl)c(NC4CCN(c5ccc(C#N)cn5)CC4)n3)cc2n1 [Example 70]
10.3

Now the molecule Cc1nnc2cc(Nc3ncc(Cl)c(NC4CCN(c5ccc(C#N)cn5)CC4)n3)cnn12 [Example 25]
61

Try the molecule CC(C)(O)Cc1cn2cc(Nc3ncc(Cl)c(NC4CCN(c5ccc(C#N)cn5)CC4)n3)ccc2n1 [Example 73]
42

# repeat for CC(O)Cn1cnc2ncc(Nc3ncc(Cl)c(NC4CCN(c5ccc(C#N)cn5)CC4)n3)cc21 (stereo not shown) [Example 51]
31.6
